// data source = paper PMC2756588

TARGET_UNDER_TEST: T1, Cdc25, P04821
T1 sequence (P04821 50-136, looked up): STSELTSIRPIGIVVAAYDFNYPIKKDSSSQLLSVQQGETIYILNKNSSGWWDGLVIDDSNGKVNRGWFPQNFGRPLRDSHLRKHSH
ASSAY_DETAILS: SPOT array
ASSAY_CONDITIONS: median of control spots 969
MEASURE: SPOT intensity
API doc: respond with a numeric literal and nothing else, no unit.

* MARRRLPDRPPNGIG | 14
* KIRRSSLMIPNPQQF | 12
* KWVRRPKLMTPLTFS | 0

[in] Which SPOT intensity reading was recorded for the binder YSRKKLPVVLSKMTL ?
[out] 0

[in] Which SPOT intensity reading was recorded for the binder GDHPKGPPPPPPPPD ?
[out] 0

[in] Which SPOT intensity reading was recorded for the binder HAPPLPPTAPPPPSL ?
[out] 0

[in] Which SPOT intensity reading was recorded for the binder VKPRQLFPIPLNKVD ?
[out] 0
